B1: Hairpin Ribozyme (parent)
chain: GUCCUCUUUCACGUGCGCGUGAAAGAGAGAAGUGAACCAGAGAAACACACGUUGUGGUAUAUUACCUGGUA

Variants of: B1
Experiment Description: self-cleavage, relative activity (ratio to wild type); higher = more cleavage; co-transcriptional
Attribute Measured: self-cleavage
Enter a number only.

Example entries begin here.
# Mutation Key, self-cleavage
measured = [
    ("A36U A61U", 0.213),
    ("U14C A39U", 0.387),
    ("A35C G42A", 0.129),
    ("C48U U53C", 0.233),
    ("A35G G54C", 0.444),
    ("G17A U60A", 1.02),
    ("C48U G54C", 0.129),
    ("A43C U52C", 0.109),
    ("U2A G27A", 0.127),
    ("G32U U58C", 0.116),
]

Challenge: What does the record list as self-cleavage for A28G G51U ?
Response given: 1.14

Challenge: What does the record list as self-cleavage for G1A A41C ?
Response given: 0.134

Challenge: What does the record list as self-cleavage for G19C U63A ?
Response given: 0.107

Challenge: What does the record list as self-cleavage for U5A U7G ?
Response given: 0.253

Challenge: What does the record list as self-cleavage for U14G G56C ?
Response given: 0.164

Challenge: What does the record list as self-cleavage for G21U A44C ?
Response given: 0.117

Challenge: What does the record list as self-cleavage for A11U G40A ?
Response given: 0.242

Challenge: What does the record list as self-cleavage for C12A C16U ?
Response given: 0.977

Challenge: What does the record list as self-cleavage for U9C U62A ?
Response given: 0.238

Challenge: What does the record list as self-cleavage for U5A A43C ?
Response given: 0.113

Challenge: What does the record list as self-cleavage for G19U A47U ?
Response given: 0.211

Challenge: What does the record list as self-cleavage for A11U G21C ?
Response given: 0.549

Challenge: What does the record list as self-cleavage for C38G A43C ?
Response given: 0.198

Challenge: What does the record list as self-cleavage for A31C G69A ?
Response given: 0.0915

Challenge: What does the record list as self-cleavage for U9G ?
Response given: 0.701

Challenge: What does the record list as self-cleavage for G1C U67G ?
Response given: 0.0946

Challenge: What does the record list as self-cleavage for A23C A41C ?
Response given: 0.948

Challenge: What does the record list as self-cleavage for G13A G27A ?
Response given: 0.462

Challenge: What does the record list as self-cleavage for C37G C66U ?
Response given: 0.286

Challenge: What does the record list as self-cleavage for U9A G69A ?
Response given: 0.296

Challenge: What does the record list as self-cleavage for C37G A47U ?
Response given: 0.113

Challenge: What does the record list as self-cleavage for A31G A59C ?
Response given: 0.173

Challenge: What does the record list as self-cleavage for A22C G54A ?
Response given: 0.587

Challenge: What does the record list as self-cleavage for G42U C50A ?
Response given: 0.189

Challenge: What does the record list as self-cleavage for U53A A64G ?
Response given: 0.696

Challenge: What does the record list as self-cleavage for C12G G69U ?
Response given: 0.259

Challenge: What does the record list as self-cleavage for C16U A39G ?
Response given: 0.326

Challenge: What does the record list as self-cleavage for G15C G19A ?
Response given: 0.913

Challenge: What does the record list as self-cleavage for G42C A44U ?
Response given: 0.174

Challenge: What does the record list as self-cleavage for C4A U52C ?
Response given: 0.182
